Test system: HL-60
Assay: Cytotoxicity against human HL60 cells after 48 hrs by MTT assay
Assay type: functional, cell-based
Conditions: HL-60, 48 h
result-type: IC50 (µM)
Please give a number only; it is taken to be in µM.

Reported IC50 for CN(C)CCCNCCC(=O)Nc1ccc(C(=O)Nc2cc(Cl)ccc2-c2nc(NCCCN(C)C)c3ccccc3n2)cc1 was 1.7

====

Species: Homo sapiens
Experiment: Binding affinity to human telomeric G-quadruplex 5'-d(GGG[TTAGGG]3)-3' DNA assessed as induction of conformation conversion from antiparallel to parallel type at 25 uM after 5 mins by circular dichroism spectroscopic analysis
The source made the active and inactive calls. The rule behind the calls is not given here.
Permitted responses: yes (1) = active, no (0) = inactive

GET /call?item= CN(C)CCCNCCC(=O)Nc1ccccc1-c1nc(NCCCN(C)C)c2ccccc2n1 returns the recorded outcome of this test.
yes (1)

GET /call?item= CN(C)CCCNc1nc(-c2ccccc2NC(=O)c2ccc(NC(=O)CN3CCCC3)cc2)nc2ccccc12 returns the recorded outcome of this test.
yes (1)

GET /call?item= CN(C)CCCNc1nc(-c2ccccc2NC(=O)c2ccc(NC(=O)CN3CCOCC3)cc2)nc2ccccc12 returns the recorded outcome of this test.
yes (1)

GET /call?item= CCN(CC)CCC(=O)Nc1ccc(C(=O)Nc2ccccc2-c2nc(NCCCN(C)C)c3ccccc3n2)cc1 returns the recorded outcome of this test.
yes (1)

GET /call?item= CN(C)CCCNc1nc(-c2ccccc2NC(=O)CCN2CCN(C)CC2)nc2ccccc12 returns the recorded outcome of this test.
yes (1)

GET /call?item= CCN(CC)CC(=O)Nc1ccc(C(=O)Nc2ccccc2-c2nc(NCCCN(C)C)c3ccccc3n2)cc1 returns the recorded outcome of this test.
yes (1)

GET /call?item= CN(C)CCCNc1nc(-c2ccccc2NC(=O)CN2CCOCC2)nc2ccccc12 returns the recorded outcome of this test.
no (0)

====

Species: Homo sapiens
Test: Binding affinity to human telomeric G-quadruplex 5'-d(GGG[TTAGGG]3)-3' DNA assessed as induction of conformation conversion from antiparallel to parallel type at 25 uM after 5 mins by circular dichroism spectroscopic analysis
Activity calls are given as the source filed them. No cut-off for these calls is given here.
Permitted responses: 1 (yes) (active), 0 (no) (inactive)

GET /call?item= CCN(CC)CCC(=O)Nc1ccccc1-c1nc(NCCCN(C)C)c2ccccc2n1 returns the recorded outcome of this test.
1 (yes)

GET /call?item= CN(C)CCCNc1nc(-c2ccccc2NC(=O)CCN2CCCC2)nc2ccccc12 returns the recorded outcome of this test.
1 (yes)

GET /call?item= CN(C)CCCNc1nc(-c2ccccc2NC(=O)CCN2CCOCC2)nc2ccccc12 returns the recorded outcome of this test.
0 (no)

GET /call?item= CN(C)CCCNc1nc(-c2ccccc2NC(=O)c2ccc(NC(=O)CN3CCN(C)CC3)cc2)nc2ccccc12 returns the recorded outcome of this test.
1 (yes)

GET /call?item= CN(C)CCCNc1nc(-c2ccc(Cl)cc2NC(=O)c2ccc(NC(=O)CCN3CCOCC3)cc2)nc2ccccc12 returns the recorded outcome of this test.
1 (yes)

GET /call?item= CN(C)CCCNc1nc(-c2ccccc2NC(=O)c2ccc(NC(=O)CCN3CCCC3)cc2)nc2ccccc12 returns the recorded outcome of this test.
1 (yes)

GET /call?item= CN(C)CCCNc1nc(-c2ccccc2NC(=O)CN2CCN(C)CC2)nc2ccccc12 returns the recorded outcome of this test.
0 (no)

GET /call?item= CN(C)CCCNc1nc(-c2ccc(Cl)cc2NC(=O)c2ccc(NC(=O)CCN3CCCC3)cc2)nc2ccccc12 returns the recorded outcome of this test.
1 (yes)

GET /call?item= CN(C)CCCNc1nc(-c2ccccc2NC(=O)c2ccc(NC(=O)CCN3CCOCC3)cc2)nc2ccccc12 returns the recorded outcome of this test.
1 (yes)

GET /call?item= CN(C)CCCNCCC(=O)Nc1ccc(C(=O)Nc2ccccc2-c2nc(NCCCN(C)C)c3ccccc3n2)cc1 returns the recorded outcome of this test.
1 (yes)

GET /call?item= CCN(CC)CCC(=O)Nc1ccc(C(=O)Nc2cc(Cl)ccc2-c2nc(NCCCN(C)C)c3ccccc3n2)cc1 returns the recorded outcome of this test.
1 (yes)

GET /call?item= CN(C)CCCNc1nc(-c2ccc(Cl)cc2NC(=O)c2ccc(NC(=O)CCN3CCN(C)CC3)cc2)nc2ccccc12 returns the recorded outcome of this test.
1 (yes)

GET /call?item= CN(C)CCCNCCC(=O)Nc1ccc(C(=O)Nc2cc(Cl)ccc2-c2nc(NCCCN(C)C)c3ccccc3n2)cc1 returns the recorded outcome of this test.
1 (yes)

GET /call?item= CCN(CC)CC(=O)Nc1ccccc1-c1nc(NCCCN(C)C)c2ccccc2n1 returns the recorded outcome of this test.
1 (yes)

GET /call?item= CN(C)CCCNc1c2ccccc2nc2c1[nH]c1ccccc12 returns the recorded outcome of this test.
0 (no)

GET /call?item= CN(C)CCCNc1nc(-c2ccccc2NC(=O)CN2CCCC2)nc2ccccc12 returns the recorded outcome of this test.
1 (yes)

GET /call?item= CN(C)CCCNc1nc(-c2ccccc2NC(=O)c2ccc(NC(=O)CCN3CCN(C)CC3)cc2)nc2ccccc12 returns the recorded outcome of this test.
1 (yes)

GET /call?item= CN(C)CCCNc1nc(-c2ccc(Cl)cc2NC(=O)CCN2CCN(C)CC2)nc2ccccc12 returns the recorded outcome of this test.
1 (yes)

====

Please provide measured Kd for the entries that follow.
Assay: Binding affinity to human biotinylated telomeric G-quadruplex 5'-d(GGG[TTAGGG]3)-3' DNA by surface plasmon resonance analysis
Please give a number only; it is taken to be in µM.

Reported Kd for CCN(CC)CCC(=O)Nc1ccc(C(=O)Nc2cc(Cl)ccc2-c2nc(NCCCN(C)C)c3ccccc3n2)cc1 was 0.302

Reported Kd for CN(C)CCCNCCC(=O)Nc1ccccc1-c1nc(NCCCN(C)C)c2ccccc2n1 was 3.36

Reported Kd for CN(C)CCCNc1nc(-c2ccccc2NC(=O)c2ccc(NC(=O)CCN3CCN(C)CC3)cc2)nc2ccccc12 was 1.48

Reported Kd for CN(C)CCCNc1nc(-c2ccccc2NC(=O)c2ccc(NC(=O)CN3CCN(C)CC3)cc2)nc2ccccc12 was 2.75

Reported Kd for CN(C)CCCNCCC(=O)Nc1ccc(C(=O)Nc2cc(Cl)ccc2-c2nc(NCCCN(C)C)c3ccccc3n2)cc1 was 0.379

Reported Kd for CN(C)CCCNc1c2ccccc2nc2c1[nH]c1ccccc12 was 28

Reported Kd for CCN(CC)CCC(=O)Nc1ccc(C(=O)Nc2ccccc2-c2nc(NCCCN(C)C)c3ccccc3n2)cc1 was 1.61

Reported Kd for CN(C)CCCNCCC(=O)Nc1ccc(C(=O)Nc2ccccc2-c2nc(NCCCN(C)C)c3ccccc3n2)cc1 was 1.11

Reported Kd for CCN(CC)CC(=O)Nc1ccc(C(=O)Nc2ccccc2-c2nc(NCCCN(C)C)c3ccccc3n2)cc1 was 8.34

Reported Kd for CN(C)CCCNc1nc(-c2ccc(Cl)cc2NC(=O)c2ccc(NC(=O)CCN3CCOCC3)cc2)nc2ccccc12 was 3.06

Reported Kd for CN(C)CCCNc1nc(-c2ccc(Cl)cc2NC(=O)c2ccc(NC(=O)CCN3CCCC3)cc2)nc2ccccc12 was 0.227

Reported Kd for CN(C)CCCNc1nc(-c2ccc(Cl)cc2NC(=O)c2ccc(NC(=O)CCN3CCN(C)CC3)cc2)nc2ccccc12 was 0.276

====

Assay: Binding affinity to biotinylated duplex DNA (unknown origin) by surface plasmon resonance analysis
result-type: Kd (µM)
Please give a number only; it is taken to be in µM.

Reported Kd for CN(C)CCCNc1nc(-c2ccccc2NC(=O)c2ccc(NC(=O)CN3CCN(C)CC3)cc2)nc2ccccc12 was 39.7

Reported Kd for CN(C)CCCNCCC(=O)Nc1ccccc1-c1nc(NCCCN(C)C)c2ccccc2n1 was 7.9

Reported Kd for CN(C)CCCNc1c2ccccc2nc2c1[nH]c1ccccc12 was 5.02

Reported Kd for CN(C)CCCNc1nc(-c2ccccc2NC(=O)c2ccc(NC(=O)CCN3CCN(C)CC3)cc2)nc2ccccc12 was 13.2

Reported Kd for CCN(CC)CC(=O)Nc1ccc(C(=O)Nc2ccccc2-c2nc(NCCCN(C)C)c3ccccc3n2)cc1 was 11.9

Reported Kd for CCN(CC)CCC(=O)Nc1ccc(C(=O)Nc2ccccc2-c2nc(NCCCN(C)C)c3ccccc3n2)cc1 was 22
